# melting point per entry

MOLECULE	melting point
CCC1C(=O)C2C3CCC(C(C)CCC(=O)O)C3(C)CCC2C2(C)CCC(O)CC12 (stereo not drawn)	185 to 188 °C
Cc1nc(N2CCN(CC(C)C)C2=O)sc1C(=O)NCc1cocn1	115 to 118 °C
Cc1ccccc1Cn1[nH]c(N)cc1=O	138 °C
CCc1n[nH]c(CC)c1Oc1cccc(C#N)c1	81 to 84 °C

Output measured melting point for this item: COc1cc(C)nc(NC(=O)NS(=O)(=O)c2c(Br)csc2C(=O)c2cccs2)n1
106 °C

Output measured melting point for this item: O=c1ccc(C(F)(F)F)cn1-c1ccc([N+](=O)[O-])cc1Cl
218 °C

Output measured melting point for this item: CC(=O)NCC1CC1c1c(Cl)ccc2nn(C)cc12 (stereo not drawn)
149 to 150 °C

Output measured melting point for this item: CC(=O)OCC1OC(c2ccc(Cl)c(Cc3ccc(-c4ccc(F)nc4)s3)c2)C(OC(C)=O)C(OC(C)=O)C1OC(C)=O (stereo not drawn)
161 to 162 °C

Output measured melting point for this item: COc1cc(CNc2ccc(C)cc2)cc(OC)c1OC
94 to 96 °C

Output measured melting point for this item: Oc1cncc(Cl)c1CCCOc1cccnc1Oc1cccc(Cl)c1
95 to 96 °C

----------
# melting point per entry

Output measured melting point for this item: CSc1nc(NC(=O)C2([N+](=O)[O-])C=CC=CC2S(N)(=O)=O)nn1C (stereo not drawn)
210 to 213 °C

Output measured melting point for this item: CCCCc1nc(Cl)c(C(=O)O)n1Cc1ccc2oc(-c3ccccc3-c3nnn[nH]3)c(C(C)(C)C)c2c1
129 to 132 °C

Output measured melting point for this item: O=Cc1cc2c(ccc3c4ccccc4ccc23)o1
169 °C

Output measured melting point for this item: COc1ccccc1-c1ccc(OCC(=O)Nc2cscc2C(=O)O)nc1
194 to 197 °C

Output measured melting point for this item: COc1nccc(-c2ccc3cc(N(C)C)ccc3c2)c1C#N
150 to 151 °C

----------
# melting point per entry

COMPOUND	RESULT
c1cc(CN2CCCCC2)cc(OCCCNc2ncnc3ccccc23)c1	111 °C

Output measured melting point for this item: c1ccc(-c2cc(OCC3CO3)no2)cc1 (stereo not drawn)
98 to 99 °C

----------
# melting point per entry

Illustrative cases are given below, each with its answer.
COMPOUND	melting point
O=[N+]([O-])c1ccc2ncnc(Nc3ccc4ncccc4c3)c2c1	> 300 °C
CC(=O)OC1CC2CCC3C(CCC4(C)C3CC(N3CCCCC3)C4OC(C)=O)C2(C)CC1N1CCOCC1 (stereo not drawn)	119 to 128 °C
COc1ccc(C=C2SCCS2)cc1OC	74 to 75 °C

Output measured melting point for this item: CS(=O)(=O)Nc1cc2occ([N+](=O)[O-])c(=O)c2cc1Oc1ccccc1
225 to 227 °C

Output measured melting point for this item: CC(=O)N1CCC(=O)C(C(c2ccccc2)c2ccccc2)C1 (stereo not drawn)
133 to 136 °C

Output measured melting point for this item: COC(=O)C(Cc1ccccc1)Oc1ccc2cc(-c3cnc(-c4cn(Cc5ccccc5)c5ccccc45)o3)ccc2c1 (stereo not drawn)
188 to 190 °C

Output measured melting point for this item: COC(=O)c1ccc(S(C)(=O)=O)c(C=O)c1C
108 to 110 °C

Output measured melting point for this item: CN(C(=O)OC(C)(C)C)C1CC=C(c2c[nH]c3ccc([N+](=O)[O-])cc23)CC1 (stereo not drawn)
224 to 226 °C

Output measured melting point for this item: O=C1N=C(N2CCOCC2)SC1c1cncc(-c2cc3c(c(C45CC6CC(CC(C6)C4)C5)c2)OCO3)c1 (stereo not drawn)
255 to 258 °C

Output measured melting point for this item: CCCOc1ncc(S(C)(=O)=O)cc1-c1nc2c(CC)nn(C[C@@H]3CCCN3C(=O)OC(C)(C)C)c2c(=O)[nH]1
98 to 104 °C

Output measured melting point for this item: Cc1nc2c(OCc3ccccc3)cc(C(=O)N(C)C)cc2n1C
159 to 160 °C

Output measured melting point for this item: OCCCCCCC(O)C(c1ccc(Cl)cc1Cl)n1ccnc1 (stereo not drawn)
74 to 76 °C

Output measured melting point for this item: CS(=O)(=O)Nc1ccc(C(=O)CN2CCN(c3cccnc3)CC2)cc1
197 to 198 °C

----------
# melting point per entry

COMPOUND	QUANTITY_MEASURED	RESULT
Cc1c(C)c2c(c(C)c1O)CCC(C)(C(=S)Nc1cc(C(C)(C)C)c(O)c(C(C)(C)C)c1)O2 (configuration not stated)	melting point	172 to 174 °C

Output measured melting point for this item: COc1ccc(-c2c(C3CCN(C)CC3)[nH]c(=O)c3ccccc23)cc1
209 to 211 °C

Output measured melting point for this item: CCc1n[nH]c(=O)c2ccc(OC)cc12
230 to 235 °C

----------
# melting point per entry

Illustrative cases are given below, each with its answer.
COMPOUND	RESULT
CCc1cc2c(cc1N)N1CCCN=C1S2	210 °C
N#Cc1cn(CCl)cc1-c1ccccc1Cl	97 to 99 °C

Output measured melting point for this item: O=C(NC1CC1)c1ccc2c(=O)nc(-c3ccccn3)sc2c1
272 to 274 °C

Output measured melting point for this item: COCc1nccc(=O)[nH]1
125 to 127 °C

Output measured melting point for this item: O=C(O)c1ccc(CN(Cc2cc(Br)ccc2OCc2ccccc2)c2ccc(C(=O)O)cc2)cc1
271 °C

Output measured melting point for this item: CCCOc1ccc(S(=O)(=O)N2CCN(CCC)CC2)cc1-c1nc2cc3ncn(Cc4ccccc4)c3cc2c(=O)[nH]1
194 to 195 °C

Output measured melting point for this item: CCCCCCCCCCNC(CCCNC(=N)N)C(=O)O (configuration not stated)
100 °C

Output measured melting point for this item: COc1ccc(N2CCN(c3c(C)c(C)c4c(c3C)C(O)(c3ccc(N(C)C)cc3)C(C)(C)O4)CC2)cc1 (configuration not stated)
144 to 146 °C

Output measured melting point for this item: Cc1nc(C)c(-c2ccnc(Nc3ccc(N4CCOCC4)c(C)c3)n2)s1
164 to 166 °C

----------
QUANTITY_MEASURED: melting point

COMPOUND	RESULT
CN1CCN(c2c(-c3ccccc3)sc3ccccc23)CC1	118 to 120 °C

Output measured melting point for this item: CCCCCCCCCCCCCCCCC12CCC3=C(CCc4cc(OC)ccc43)C1=CCC2=O (stereo not given)
55 to 56 °C

Output measured melting point for this item: COC(=O)CCCC#Cc1cc(Cl)ccc1NS(=O)(=O)c1ccc2nc(NC(C)=O)sc2c1
138 to 140 °C

Output measured melting point for this item: CS(=O)(=O)c1ccc(-c2sc(-c3ccccc3)nc2-c2ccc(F)cc2)cc1
188 to 189 °C

Output measured melting point for this item: O=C(N[C@@H](CNC(=O)c1ccc(C2CC2C(=O)NC2=NCCCN2)s1)C(=O)O)OCc1ccccc1 (stereo not given in full)
98 °C

Output measured melting point for this item: C[C@H](C#Cc1sc(Cc2ccc(F)cc2)cc1Cl)N(O)C(N)=O
131 to 132 °C

Output measured melting point for this item: CN(C)c1nc(N)ncc1Cc1ccccc1
181 to 182 °C

Output measured melting point for this item: CCOC(=O)c1cnn2c(-c3ccc(CC)cc3)ccnc12
101 to 103 °C

Output measured melting point for this item: COCCc1nc2c(N)nc3ccccc3c2n1CCOCCN(C(N)=O)c1ccccc1
171 to 174 °C

Output measured melting point for this item: Nc1ncc([N+](=O)[O-])cc1[N+](=O)[O-]
190 to 191 °C

Output measured melting point for this item: CCOC(=O)C(=NO)c1ccccc1[N+](=O)[O-]
167 to 168 °C

Output measured melting point for this item: O=S1(=O)N=C2CCCN2c2ccc(Oc3cccc(-c4ccoc4)c3)cc21
128 to 132 °C

Output measured melting point for this item: O=C(O)CC1C2=C(CCCC2)C(=O)N1c1ccc(Cl)cc1 (stereo not given)
177 to 178 °C

----------
# melting point per entry

Illustrative cases are given below, each with its answer.
COMPOUND	melting point
O=C(Nc1ccc(Cl)c(Cl)c1)N(O)Cc1ccccc1	157 °C
O=C(O)c1cc(O)c2c(c1)C(=O)c1ccc(F)c(O)c1C2=O	> 275 °C
Clc1ccc2c(n1)C(c1ccccc1Cl)NCc1nncn1-2 (centres undefined)	206 to 208 °C
Cc1cc(C)c2c(n1)CCCC2=O	54 to 57 °C
COc1ccccc1N1CCN(C(=O)[C@@H](Cc2cccnc2)NC(=O)OC(C)(C)C)CC1	142 °C

Output measured melting point for this item: COc1cc2ncnc(N3CCN(C(=O)NCCc4ccc(Br)cc4)CC3)c2cc1OC
174 to 175 °C

Output measured melting point for this item: Cc1c(-c2ccc(N(C)C)nn2)ssc1=S
216 °C

Output measured melting point for this item: N#Cc1csc([N+](=O)[O-])c1Br
176 to 178 °C

Output measured melting point for this item: COC(=O)c1ccccc1C1=NC(C)(C(C)C)C(=O)N1O (centres undefined)
146 to 150 °C

Output measured melting point for this item: CC(C)(C)c1ccc(/C=N/OCc2ccc(C(=O)O)c(Br)c2)cc1
162 to 163 °C

Output measured melting point for this item: Cc1c(NC(=O)c2ccc(C#CC3(O)CCC3)cc2)ccc2cc(CNCC(C)(C)C)n(C)c12
232 to 233 °C

Output measured melting point for this item: COC(=O)CN(C(=O)c1ccc(Cl)cc1)c1ccccc1CCC#N
127 to 128 °C

Output measured melting point for this item: Cn1ncc2nc3cccc(F)c3c(Cl)c21
269 °C

Output measured melting point for this item: O=C(O)c1c[nH]c(=S)n1C1CCc2c(F)cc(F)cc2C1 (centres undefined)
250 to 252 °C
